- Protocol text: yeast display, Sf9 membrane polyspecificity reagent, FACS + sequencing; frameworks hold sequencing errors
Experimental readout: polyreactivity (PSR sort gate)

QVQLVESGGGLVQAGGSLRLTSADSGRTLYNYAMRWYRQAPGKERELVAGISSAGSTNYADSVKGRFTISRDNAKNTVYLQMNSLKPEDTAVYYCNAVLRRRWVTFYYWGQGPQVTVSS	high polyreactivity
QVPLVESGGGLVQAGGSLRLSCAASGGIFGRYAMGWYRQAPGKERELVAALSARGGSSYYADSVKGRFTISRDNAKNTVYFQMNSLKPEDTAVYYCNALWVSYYTFRMDYWGQGTQVTVSS	high polyreactivity
QVQLQESGGGLVQAGGRLRLSCAASGNIFEADIMGWYNKAQGKERELVASITDGGSTNYADSVKGRFTINRYNAKNNVYLQMNSLKPEDTAVYYCAAIAYPDIPTYFDYDSDYFYWGQGTQVTVSS	high polyreactivity
QVQLVESGGGLVQAGGSLRLSCAASGRTFGIYAMGWYRQAPGKERELVAAITGRGGSTHYADSVKGRFTISRDNAKNTVYLQMNSLKPEDTAVYYCNARWWVIRPYQRHDYWGQGTQVTVSS	low polyreactivity
QVQLVESGGGLVQAGGSLRLSCAASGITFEYYAMGWYRQAPGKERELVAAIDTGGSTNYADSVKGRFTISRDNAKNTVYLQMNSLKPEDTAVYYCAADWSWWDGEDYHFEYDYWGQGTQVTVSS	low polyreactivity
QVQLQESGRRPGAAGGSPRMSCAASGNIFWVAVMGRYRQAPGKERELVASIGFGCTTYYADSVKCRFTISRDNAKNTVFLQLISLKPEDTAVYYCAAPLYDWGELDDWGQGTQVPVSS	low polyreactivity
QVQLVESGGGLVQAGGSLRLSCAASGSARYAMGWYRQAPGKERELVAAISRRGGSTFYADSVKGRFTISRDNAMNTVYLQMNSLKPEDTAVYYCAADGRISYDYWGQGTQVTVSS	low polyreactivity
QVQLVESGGGLVQAGGSLRLSCAASGSIFYIYAMGWYRQAPGKERELVAAITWRGGRTYYADSVKGRFTISRDNAKNTVYLQMNSLKPEDTAVYYCAALYAKYYYRYDYWGQGTQVTVSS	high polyreactivity

Exam item: Which polyreactivity (PSR sort gate) is listed for QVQLVESGGGLVQAGGSLRLSCAASGRIFPVNAMGCYRQAPGKEREFVSAIRGTGTSTYYADSVKGRFTISRDNAKNTVYLQMNSLKPEDTAVYYCAARGYVQYQGQNVNTFDYWGQGTQVTVSS ?
Marked response: low polyreactivity

Exam item: Which polyreactivity (PSR sort gate) is listed for QVQLVESGGGLVQAGGSLRLSCAASGLIFPPNVMGWYRQAPWKERELVAAITSSGSTKYADSVKGRFTISRDNAKNTVYLQMNSLKPEDTAVYYCARDQTWSYQPWYYLSYPQYEYWGQGTQVTVSS ?
Marked response: low polyreactivity

Exam item: Which polyreactivity (PSR sort gate) is listed for QVQLVESGGGLVQAGGSLRLSCAASGSTFNVYGLGWYRQAPGKERELVAAINRDGITYADSVKGRFTISRDNAKNTVYLQMNSLKPEDTAVYYCAAGYSPYKGSAGYYWGQGTQVTVSS ?
Marked response: low polyreactivity

The measurements presented in this section are drawn from the nanobody polyreactivity screen of Harvey et al. (2022).
